Molecular target: T1, SEZ6 N1 (amino acids 1-70) on yeast (human, UniProt Q53EL9 20-89)
T1 construct: yeast display
T1 sequence: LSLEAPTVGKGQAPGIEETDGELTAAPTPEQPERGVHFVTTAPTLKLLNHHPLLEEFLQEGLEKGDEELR
Assay: yeast display, flow cytometry;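 note: antibody binding to individual SEZ6 domains displayed on yeast, measured by flow cytometry, antibody at 50 nM purified or hybridoma supernatant diluted 1:2, 90 min on ice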

| Binder | binding result |
| --- | --- |
| SC17.4 (antibody, V domains shown, murine mAb) VH: QIQLVQSGPELKKPGETVKISCKASGYTFTDYSMHWVKQAPGKGLKWLGWINTETGEPTYSEDFKGRFAFSLETSASTAYLQINNLKNEDTATYFCVKNKGWFAYWGQGTLVTVSA VL: DIKMTQSPSSMYASLGERVTITCKASQDINSYLTWFQQKPGKSPKTLIYRANRLIDGVPSRFSGSGSGQDYSLTISSLDYEDMGIYYCLQYDDFPWTFGGGTKLEIK | binds |
| SC17.120 (antibody, V domains shown, murine mAb) VH: EVQLEQSGTVLARPGASVKMSCKASGYTFTSYWMHWVKQRPGQGLEWIGAFYPGNSGTYYNQKFKDKAKLTAVTSASTAYMELSSLTNEDSAVYYCSRSGSGRFAYWGQGTLVTVSA VL: DIVLTQSPASLAVSLGQRATISCRASESVDSYGNSFMHWYQQKPGQPPKVLIYRASNLESGIPARFSGSGSRTDFTLTINPVEDEDVATYYCQQSNEDPYTFGGGTKLEIK | binds |
